target: human ADAMTS-5 (Homo sapiens (Human), UniProt Q9UNA0); details: read-out: hADAMTS-5 potency IC50
Sequence (Q9UNA0 262-930): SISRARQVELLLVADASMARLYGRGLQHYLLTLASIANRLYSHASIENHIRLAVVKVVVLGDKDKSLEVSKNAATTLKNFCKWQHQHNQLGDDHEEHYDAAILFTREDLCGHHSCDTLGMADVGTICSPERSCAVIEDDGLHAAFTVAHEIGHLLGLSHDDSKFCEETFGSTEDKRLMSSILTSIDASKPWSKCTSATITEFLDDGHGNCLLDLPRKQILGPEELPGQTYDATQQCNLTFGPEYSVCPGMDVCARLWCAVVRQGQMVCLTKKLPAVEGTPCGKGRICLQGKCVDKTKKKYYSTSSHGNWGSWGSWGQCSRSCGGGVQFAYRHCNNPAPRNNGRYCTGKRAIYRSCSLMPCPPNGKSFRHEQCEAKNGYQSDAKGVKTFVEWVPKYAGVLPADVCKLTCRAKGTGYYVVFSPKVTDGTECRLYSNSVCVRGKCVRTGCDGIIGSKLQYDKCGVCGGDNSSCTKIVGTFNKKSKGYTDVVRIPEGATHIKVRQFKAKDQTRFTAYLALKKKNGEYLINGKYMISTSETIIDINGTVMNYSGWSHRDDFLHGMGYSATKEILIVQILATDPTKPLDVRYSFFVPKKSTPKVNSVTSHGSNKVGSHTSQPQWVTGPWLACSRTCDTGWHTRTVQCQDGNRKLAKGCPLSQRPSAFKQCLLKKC
// reported pIC50 per item
Note: pIC50 values are expressed as the negative base-10 logarithm of concentration in M.

Use the examples below as a reference point.
1. O=C1NC(=O)C(CCC(=O)N2CCN(c3ccc(F)c(Cl)c3)CC2)(c2cccnc2)N1 (stereo not shown) [compound 91]    7.02
2. Cc1ccc(F)cc1N1CCN(C(=O)CCC2(C3CC3)NC(=O)NC2=O)CC1C (stereo not shown) [compound 129]    6.82
3. CC1(CCC(=O)N2CCN(c3ccc(Cl)cc3)CC2)NC(=O)NC1=O (stereo not shown) [compound 2]    6.56

Here is the next item to consider.
Task: Look up pIC50: O=C1NC(=O)C(CCC(=O)N2CCN(c3ccc(F)c(F)c3)CC2)(c2ccccn2)N1 (stereo not shown) [compound 95]
Result: 7.32

* * *

// reported pIC50 per item
molecular target: rnADAMTS-5 (1-564-6H) (Rattus norvegicus)
Note: pIC50 values are expressed as the negative base-10 logarithm of concentration in M.

1. O=C1NC(=O)C(CCC(=O)N2CCN(c3cc(Cl)cc(Cl)c3)CC2)(C2CC2)N1 (centres unmarked)    7.43
2. CC1(CCC(=O)N2CCN(c3ccccc3)CC2)NC(=O)NC1=O (centres unmarked)    6.14
3. NCC1(CCC(=O)N2CCN(c3cc(Cl)cc(Cl)c3)CC2)NC(=O)NC1=O (centres unmarked)    6.62
4. O=C1NC(=O)C(CCC(=O)N2CCN(c3cccc(Cl)c3)CC2)(c2cccnc2)N1 (centres unmarked)    7.14
5. Cc1ccc(Cl)cc1N1CCN(C(=O)CCC2(c3ccccn3)NC(=O)NC2=O)CC1 (centres unmarked)    7.19
6. C[C@H]1CN(C(=O)CC[C@@]2(C3CC3)NC(=O)NC2=O)CCN1c1ccc(Cl)c(Cl)c1    8.22

Task: Look up pIC50: O=C1NC(=O)C(CCC(=O)N2CCN(c3cc(Cl)cc(Cl)c3)CC2)(CNCc2ccccc2)N1 (centres unmarked)
Result: 6.90

Task: Look up pIC50: CC(CC1(C)NC(=O)NC1=O)C(=O)N1CCN(c2cc(F)cc(F)c2)[C@@H](C)C1 (some centres unmarked)
Result: 7.68

* * *

// reported IC50 per item
molecular target: human MMP13 (Homo sapiens (Human), UniProt P45452); details: read-out: hMMP-13 potency IC50

Use the examples below as a reference point.
1) O=C1NC(=O)C(CCC(=O)N2CCN(c3ccc(F)c(Cl)c3)CC2)(C2CC2)N1 (stereo not shown) [compound 114]    2.58 µM
2) COCC(CC1(C)NC(=O)NC1=O)C(=O)N1CCN(c2cc(Cl)cc(Cl)c2)CC1 (stereo not shown) [compound 436]    > 4 µM
3) CC(C)(C)OC(=O)CC1(CCC(=O)N2CCN(c3cc(Cl)cc(Cl)c3)CC2)NC(=O)NC1=O (stereo not shown) [Cpd 188]    2.67 µM
4) CC1(CCC(=O)N2CCN(c3ccc(Cl)c(Cl)c3)CC2)NC(=O)NC1=O (stereo not shown) [compound 67]    > 3.5 µM
5) O=C1NC(=O)C(CCC(=O)N2CCN(c3ccccc3)CC2)(C2CC2)N1 (stereo not shown) [compound 138]    > 4 µM
6) CN(C)CC1(CCC(=O)N2CCN(c3cccc(Cl)c3)CC2)NC(=O)NC1=O (stereo not shown) [compound 118]    > 20 µM
7) N#Cc1ccc(C2(CCC(=O)N3CCN(c4cccc(Cl)c4)CC3)NC(=O)NC2=O)cc1 (stereo not shown) [compound 125]    2.12 µM
8) CC(CC1(C2CNC2)NC(=O)NC1=O)C(=O)N1CCN(c2ccc(F)c(F)c2)[C@@H](C)C1 (stereo partly shown) [compound 247]    > 20 µM
9) O=C1NC(=O)C(CCC(=O)N2CCN(c3ccc(F)c(Cl)c3)CC2)(c2ccccn2)N1 (stereo not shown) [compound 96]    1.06 µM
10) COCC1(CC(C)C(=O)N2CCN(c3ccc(F)c(F)c3)[C@@H](C)C2)NC(=O)NC1=O (stereo partly shown) [compound 226]    3.27 µM

Task: Look up IC50: Cc1c(Cl)cccc1N1CCN(C(=O)CCC2(c3cccnc3)NC(=O)NC2=O)CC1 (stereo not shown) [compound 102]
Result: > 20 µM

Task: Look up IC50: C[C@H]1CN(C(=O)CC[C@@]2(C3CC3)NC(=O)NC2=O)CCN1c1ccc(Cl)c(Cl)c1 [compound 207]
Result: 2.88 µM

Task: Look up IC50: Cc1ccc(C)c(N2CCN(C(=O)CCC3(c4ccccn4)NC(=O)NC3=O)CC2)c1 (stereo not shown) [compound 87]
Result: > 20 µM

Task: Look up IC50: C[C@H]1CN(C(=O)CCC2(C3CC3)NC(=O)NC2=O)CCN1c1ccc(Cl)c(F)c1 (stereo partly shown) [compound 162]
Result: > 4 µM

Task: Look up IC50: CC(CC1(CCN)NC(=O)NC1=O)C(=O)N1CCN(c2cc(Cl)cc(Cl)c2)CC1 (stereo not shown) [compound 210]
Result: > 14.7 µM

Task: Look up IC50: COCC1(CC(C)C(=O)N2CCN(c3cccc(Cl)c3C)CC2)NC(=O)NC1=O (stereo not shown) [compound 433]
Result: > 20 µM
